target: T1, CD71 apical domain (UniProt P02786 189-383, limits assumed); test: solution ELISA, signal ratio to HSA
T1 construct: domain: Apical domain
T1 sequence (P02786 189-383 limits assumed): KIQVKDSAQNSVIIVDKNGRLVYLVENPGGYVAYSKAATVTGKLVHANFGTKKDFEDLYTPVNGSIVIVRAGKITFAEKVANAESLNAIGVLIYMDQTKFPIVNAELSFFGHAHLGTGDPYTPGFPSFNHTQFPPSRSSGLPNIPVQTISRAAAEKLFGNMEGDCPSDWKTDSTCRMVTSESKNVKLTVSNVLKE
measurementType: apical domain:HSA

* SEQ ID NO 202 (designed binder, FN3 domain) MLPAPKNLVVSRVTEDSARLSWTAPDAAFDSFDIGYTEYGGYGEAILHVPGSERSYDLTGLKPGTEYWVLIQGVKGGGSSVPLSAIFTT | 212
* SEQ ID NO 155 (designed binder, FN3 domain) MLPAPKNLVVSRVTEDSARLSWTAPDAAFDSFYIAYAEPRPDGEAIWLVVPGSERSYDLTGLKPGTEYSVLIHGVKGGLLSSPLHARFTT | 263
* SEQ ID NO 190 (designed binder, FN3 domain) MLPAPKNLVVSRVTEDSARLSWTAPDAAFDSFYIAYAEPRPDGEAISLDVPGSERSYDLTGLKPGTEYSVLIHGVKGGLLSSPLEASFTT | 208

(I) SEQ ID NO 193 (designed binder, FN3 domain) MLPAPKNLVVSRVTEDSARLSWTAPDAAFDSFYIAYAEPRPDGEAISLSVPGSERSYDLTGLKPGTEYSVLIHGVKGGLLSSPLIANFTT
(II) SEQ ID NO 105 (designed binder, FN3 domain) MLPAPKNLVVSRVTEDSARLSWTAPDAAFDSFYIAYAEPRPDGEAIFLVVPGSERSYDLTGLKPGTEYSVLIHGVKGGLLSSPLHANFTT
IN: Could you determine which record has the numerically smaller apical domain:HSA? Candidates: I and II Please respond with the label that marks your chosen entry.
OUT: I
